System: SN12K1 renal
Test: NCI tumour cell line growth inhibition, 48 h
Catalogue of TGI values
Number in µM, nothing else.

Notebook entry, SN12K1 renal assay: TGI of COC1C(O)C(C)OC(OC2C(Oc3cccc4c(O)c5c(=O)oc6ccc(C)c7c(=O)oc(c34)c5c67)OC(C)C(O)C2O)C1O (stereo not given) = ? 3.5

What is its TGI for SN12K1 renal? Entry: `CCN(CC)CCCNc1ncc(C)c2[nH]c3ccncc3c12` 19.9

For the record `C[C@@H](CN1CC(=O)NC(=O)C1)N1CC(=O)NC(=O)C1` , what value of TGI is listed for SN12K1 renal? 541

Reported TGI for SN12K1 renal, given C=C1C(=O)C[C@@]23CCC[C@@]12CC(OCOC)C3 (stereo not given in full) ? 4.13

###

System: NCI/ADR-RES ovarian
Test: NCI tumour cell line growth inhibition, 48 h
value_kind: GI50

Sample answers from the record:
{"columns": ["molecule", "study_target", "value_kind", "observed_measurement"],
 "data": [
  ["CC#C/C(=N\\OC[C@H]1COCCN1)c1ccc2ncnc(Nc3ccc(OCc4cccc(F)c4)c(Cl)c3)c2c1", "NCI/ADR-RES ovarian", "GI50", "1.27 µM"],
  ["Nc1ccccc1NC(=O)c1ccc(CCCC(=O)Nc2ccc(C3CC3N)cc2)cc1 (stereo not given)", "NCI/ADR-RES ovarian", "GI50", "45.7 µM"],
  ["O=C(O)c1ccc(S(=O)(=O)Nc2ccc3oc4c(c3c2)C(=O)CCC4)cc1", "NCI/ADR-RES ovarian", "GI50", "> 100 µM"]
]}

Give NCI/ADR-RES ovarian GI50 for `CCCCCCCCCc1cc[n+](CC(=O)c2ccc([N+](=O)[O-])cc2)cc1` 2.17 µM

Provide value of GI50 for this record tested with NCI/ADR-RES ovarian: `O=Cc1ccc(-c2ccc(-c3nc4ccccc4o3)cc2)s1` 27.2 µM

###

A collection of compounds and their measured TGI
Tested on: SNB-19 CNS
Assay: NCI tumour cell line growth inhibition, 48 h

Known results for compounds:
{"columns": ["compound", "TGI"],
 "data": [
  ["Cc1c2c(n(CCc3ccccc3)c1C)N(C)N=C(C#N)S2(=O)=O", "> 100 µM"],
  ["CCOC(=O)c1sc(N/N=C2\\NC(=O)/C(=C/c3ccc([N+](=O)[O-])cc3)S2)nc1C", "> 100 µM"],
  ["CC1=C(C(=O)NCc2ccccc2)C(c2ccc([N+](=O)[O-])cc2)C(C(=O)NCc2ccccc2)=C(C)N1", "> 100 µM"],
  ["O=C(Cc1csc(N=Nc2c(O)[nH]c3ccccc23)n1)Nc1ccccc1", "85.4 µM"],
  ["Cc1nn(C(=O)c2ccncc2)c2c1C(c1ccccc1)SC(N)=N2 (stereo unspecified)", "> 10 µM"]
]}

For `COC(=O)CCC(=O)Nc1cc(Cl)ccc1Cl` , what is its reported TGI? > 100 µM

###

Tested on: NCI-H226 lung
Test: NCI tumour cell line growth inhibition, 48 h; in the data active means GI50 below about 0.43 µM; inactive means the rest
One label from this list, please: active, inactive

{"columns": ["molecule", "assigned_category"],
 "data": [
  ["CN1CCN(c2cc(C(=O)Nc3cc4cc(-c5cnn(C)c5)ccc4cn3)ccn2)CC1", "active"],
  ["O=c1c(O)cccc2cc(O)c(O)c(O)c12", "inactive"],
  ["N#CC(C#N)N=Nc1ccc(Br)cc1", "inactive"],
  ["O=[N+]([O-])c1ccccc1NC1c2ccccc2Oc2ccccc21", "inactive"],
  ["CCCCCCCCCCCCCCCC[N+](C)(CCO)Cc1cnc[nH]1 (stereo not given)", "inactive"]
]}

Which outcome was assigned to `CN1C(=O)[C@@H](NC(=O)[C@H](CCC(F)(F)F)[C@H](CCC(F)(F)F)C(N)=O)N=C(c2ccccc2)c2ccccc21` in this test? inactive

Just curious, what result did `C[C@@H]1Cc2c([nH]c3ccccc23)[C@@H](c2c(F)cc(NC3CN(CCCF)C3)cc2F)N1CC(F)(F)CO` get here? inactive

What did the test return for `C[C@@H](CN1CC(=O)NC(=O)C1)N1CC(=O)NC(=O)C1` ? inactive

Dear all, I need the recorded test outcome for CCN(CC)c1ccc2c(c1)Oc1nc(N)c(C#N)c(N)c1C2Sc1ccc(OC)cc1 (stereo not given) , thank you. inactive

Look up the recorded call for `CCCCCCCCCc1cc[n+](CC(=O)c2ccc([N+](=O)[O-])cc2)cc1` in this test. inactive
